Assignment: determine reported pIC50 for the given compounds.
METHOD: Cytotoxicity against human KBV1 cells after 72 hrs by SRB assay
Assay type: functional, cell-based
APPLIED CONDITIONS: KB-V1, 72 h
pIC50: −log10 of the molar value.

// query Any idea what pIC50 was measured for "CC(=O)O[C@H]1C(=O)[C@@]2(C)[C@H]([C@H](OC(=O)c3ccccc3)[C@]3(O)C[C@H](OC(=O)[C@H](O)[C@@H](NC(=O)c4ccccc4)c4ccccc4)C(C)=C1C3(C)C)[C@]1(OC(C)=O)CO[C@@H]1C[C@@H]2O" ?
// result < 5.64

// query Any idea what pIC50 was measured for "C[C@@H]1CC[C@@]2(OC1)O[C@H]1C[C@H]3[C@@H]4CC=C5C[C@@H](O[C@@H]6O[C@H](CO)[C@@H](O[C@@H]7O[C@@H](C)[C@H](O)[C@@H](O)[C@H]7O)[C@H](O)[C@H]6O[C@@H]6O[C@@H](C)[C@H](O)[C@@H](O)[C@H]6O)CC[C@]5(C)[C@H]4CC[C@]3(C)[C@H]1[C@@H]2C" ?
// result < 4.64

// query Any idea what pIC50 was measured for "C=C1C(=O)[C@@]23CC[C@@H]4[C@@]5(C)CCC[C@@]4(OC5=O)[C@@]2(C)CC[C@]1(OC)C3" ?
// result 5.28

====

Tested on: SW626
METHOD: Cytotoxicity against human SW626 cells after 72 hrs by SRB assay
Assay type: functional, cell-based
APPLIED CONDITIONS: SW626, 72 h
MEASURED METRIC: pIC50
Scale: negative log10 of molar concentration, which is what pIC50 denotes.

// query Any idea what pIC50 was measured for C[C@@H]1CC[C@@]2(OC1)O[C@H]1C[C@H]3[C@@H]4CC=C5C[C@@H](O[C@@H]6O[C@H](CO)[C@@H](O[C@@H]7O[C@@H](C)[C@H](O)[C@@H](O)[C@H]7O)[C@H](O)[C@H]6O[C@@H]6O[C@@H](C)[C@H](O)[C@@H](O)[C@H]6O)CC[C@]5(C)[C@H]4CC[C@]3(C)[C@H]1[C@@H]2C [DIOSCIN] ?
// result 5.51

// query Any idea what pIC50 was measured for CC(O)c1cc2c(o1)C(=O)c1ccccc1C2=O (stereo unspecified) ?
// result 5.92

// query Any idea what pIC50 was measured for CC1(C)CCC2=C(O1)C(=O)c1ccccc1C2=O [ALPHA-LAPACHONE] ?
// result 4.91

// query Any idea what pIC50 was measured for "C=C1C(=O)[C@@]23CC[C@@H]4[C@@]5(C)CCC[C@@]4(OC5=O)[C@@]2(C)CC[C@]1(OC)C3" ?
// result 6.22

// query Any idea what pIC50 was measured for CC(=O)O[C@H]1C(=O)[C@@]2(C)[C@H]([C@H](OC(=O)c3ccccc3)[C@]3(O)C[C@H](OC(=O)[C@H](O)[C@@H](NC(=O)c4ccccc4)c4ccccc4)C(C)=C1C3(C)C)[C@]1(OC(C)=O)CO[C@@H]1C[C@@H]2O [PACLITAXEL] ?
// result 11.00

// query Any idea what pIC50 was measured for C=C1C(=O)O[C@@H]2C[C@]3(C)CC[C@]4(C)[C@H](CC[C@@H]5[C@@]6(C)CCC(=O)C(C)(C)[C@@H]6CC[C@]54C)[C@H]3[C@H]12 [OCHRACEOLIDE A] ?
// result 4.45

====

METHOD: Cytotoxicity against human KBV1 cells after 72 hrs by SRB assay
Assay type: functional, cell-based
APPLIED CONDITIONS: KB-V1, 72 h
MEASURED METRIC: pIC50
Scale: negative log10 of molar concentration, which is what pIC50 denotes.

// query Any idea what pIC50 was measured for "CC1(C)CCC2=C(O1)C(=O)c1ccccc1C2=O" ?
// result 4.46

// query Any idea what pIC50 was measured for CC(O)c1cc2c(o1)C(=O)c1ccccc1C2=O (stereo not drawn) ?
// result 5.31
